Sourced from the METLIN SMRT retention time set (Domingo-Almenara et al. 2019)

experiment: gradient 5% acetonitrile 3 min, to 50% in 2 min, to 85% in 15 min, held 3 min, 100 µL/min; conditions: column: Zorbax Extend-C18 2.1 x 50 mm; eluents: water / acetonitrile, 0.1% formic acid
recorded.endpoint: RP-LC retention time (s)

Sample "O=C(Nc1nc2ccccc2s1)C1CCN(C(=O)c2ccc(F)cc2)CC1" — what was its RP-LC retention time?
808

Another compound: O=C(c1cc(-c2cccs2)n(C2CCS(=O)(=O)C2)n1)N1CCN(c2ccccn2)CC1 (centres undefined)
602

And the next one, CCCC(NC(=O)c1ccccc1)C(=O)Nc1nc2ccccc2[nH]1 (centres undefined) ?
688

Another compound to look at: "Oc1ccccc1Nc1ccccn1"
597

* * *

assay: gradient 5% acetonitrile 3 min, to 50% in 2 min, to 85% in 15 min, held 3 min, 100 µL/min; conditions: column: Zorbax Extend-C18 2.1 x 50 mm; eluents: water / acetonitrile, 0.1% formic acid
recorded.endpoint: RP-LC retention time (s)

For "COc1ccc(S(=O)(=O)NCc2ccc3c(c2)CCN3C(=O)CC(C)C)cc1OC" , what is its reported RP-LC retention time?
858

How about CCC(=O)Nc1ccc(-n2cnc(C(=O)NC(C)c3ccccc3)c2)nc1 (stereo not drawn) ?
722

Queued: "Cc1ccc(-c2noc(-c3cccn4c(=O)n(Cc5ccc6c(c5)OCO6)nc34)n2)cc1"
1010

* * *

experiment: gradient 5% acetonitrile 3 min, to 50% in 2 min, to 85% in 15 min, held 3 min, 100 µL/min; conditions: column: Zorbax Extend-C18 2.1 x 50 mm; eluents: water / acetonitrile, 0.1% formic acid
recorded.endpoint: RP-LC retention time (s)

Bench note: what RP-LC retention time did Cc1c(C(=O)NCCCN2CCOCC2)oc2ccc3c(c12)C(O)CC1(CCCCC1)O3 (stereo not drawn) show?
688

Please do the same for "COc1cccc(-c2nc(Cn3ccn4nc(-c5ccccc5)cc4c3=O)c(C)o2)c1OC" as well.
1020

Follow-up item: "Cc1c(Cl)cccc1NC(=O)CSc1nnc2c3cc(-c4ccc(F)cc4)nn3ccn12"
936

[A] Cn1cc(C2=CCN(S(=O)(=O)c3cccc(C#N)c3)CC2)c2cccnc21
[B] CCCOc1nc2ccccc2nc1N1CCCC(C(=O)Nc2c(Cl)cc(OC)cc2OC)C1 (stereo not drawn)
Hello, I am sorting some records. Could you say if A or B has the smaller RP-LC retention time value? // caller expects the label of the chosen entry
A
(A: 904 s, B: 1370 s)

[I] O=C(O)C1CCN(c2nc3ccc(-c4cncnc4)nc3s2)CC1
[II] CCOc1ccc(-c2nc(COc3cc(C(F)(F)F)c4c(C)nn(C)c4n3)c(C)o2)cc1OC
When I and II are compared, which has the higher number for RP-LC retention time? // caller expects the label of the chosen entry
II

* * *

assay: gradient 5% acetonitrile 3 min, to 50% in 2 min, to 85% in 15 min, held 3 min, 100 µL/min; details: column: Zorbax Extend-C18 2.1 x 50 mm; eluents: water / acetonitrile, 0.1% formic acid
recorded.endpoint: RP-LC retention time (s)

[1] Cc1[nH]nc(-c2cc(S(=O)(=O)NCC(C)c3ccccc3)c(C)s2)c1C (centres undefined)
[2] Cc1nc([C@@H]2CN(C(=O)c3cscn3)C[C@H]2C(N)=O)n[nH]1
Larger number for RP-LC retention time: 1 , or 2 ? Pick one; state its label.
1
(1: 936 s, 2: 533 s)
